Tested on: 292921-168-R-J2-PDC KRAS tumor spheroid viability;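 note: drug exposure lasted seven days after spheroids formed for three days; percent of DMSO vehicle control viability which is 100%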
Test: Anticancer human tumor 292921-168-R-J2-PDC patient-derived pancreatic carcinoma cell line growth inhibition [KRAS2]
Settings: second compound 1 µM; first compound 0.1 µM; hits give low values; spheroids with HUVEC and MSC
MEASURED QUANTITY: viability, T/C (%)
Only the number, expressed in %, is required.

Fill in the recorded viability, T/C for this molecule, with 292921-168-R-J2-PDC KRAS tumor spheroid viability as test system: COc1cc2nccc(Oc3ccc(NC(=O)C4(C(=O)Nc5ccc(F)cc5)CC4)cc3)c2cc1OC + C=CC(=O)N1CCN(c2nc(OCC3CCCN3C)nc3c2CCN(c2cccc4cccc(C)c24)C3)CC1CC#N 39

So what viability, T/C did COc1cc(Nc2ncc3c(n2)-c2ccc(Cl)cc2C(c2c(F)cccc2OC)=NC3)ccc1C(=O)O + COc1cc2nc(C)nc(NC(C)c3cc(N)cc(C(F)(F)F)c3)c2cc1OC1CCOC1 get with 292921-168-R-J2-PDC KRAS tumor spheroid viability? 24.5

Test system 292921-168-R-J2-PDC KRAS tumor spheroid viability; read-out viability, T/C; what value for COc1cc(Nc2ncc3c(n2)-c2ccc(Cl)cc2C(c2c(F)cccc2OC)=NC3)ccc1C(=O)O + C=CC(=O)N1CCN(c2nc(=O)n(-c3c(C)ccnc3C(C)C)c3nc(-c4c(O)cccc4F)c(F)cc23)C(C)C1 ? 35.6

API: value(readout=viability, T/C, system=292921-168-R-J2-PDC KRAS tumor spheroid viability) for record CN(C)C/C=C/C(=O)Nc1cc2c(Nc3ccc(F)c(Cl)c3)ncnc2cc1O[C@H]1CCOC1 + CC1OCC2(CCN(c3cnc(Sc4ccnc(N)c4Cl)c(N)n3)CC2)C1N 79.8

API: value(readout= viability, T/C, system= 292921-168-R-J2-PDC KRAS tumor spheroid viability, query= CC1(C)CCC(CN2CCN(c3ccc(C(=O)NS(=O)(=O)c4ccc(NCC5CCOCC5)c([N+](=O)[O-])c4)c(Oc4cnc5[nH]ccc5c4)c3)CC2)=C(c2ccc(Cl)cc2)C1 + COc1cc2nc(C)nc(NC(C)c3cc(N)cc(C(F)(F)F)c3)c2cc1OC1CCOC1 ) 80.5

Query for 292921-168-R-J2-PDC KRAS tumor spheroid viability: what viability, T/C does the record show for CCN1CCN(Cc2ccc(Nc3ncc(F)c(-c4cc(F)c5nc(C)n(C(C)C)c5c4)n3)nc2)CC1 + C=CC(=O)N1CCN(c2nc(=O)n(-c3c(C)ccnc3C(C)C)c3nc(-c4c(O)cccc4F)c(F)cc23)C(C)C1 ? 50.4

Query viability, T/C on 292921-168-R-J2-PDC KRAS tumor spheroid viability for CC1COCCN1c1cc(-c2ccnn2C)c2ccnc(-c3ccn[nH]3)c2n1 (stereo not given) + C=CC(=O)N1CCN(c2nc(=O)n(-c3c(C)ccnc3C(C)C)c3nc(-c4c(O)cccc4F)c(F)cc23)C(C)C1 12.9

Please state recorded viability, T/C (tested on 292921-168-R-J2-PDC KRAS tumor spheroid viability) of Cn1ncnc1[C@H]1c2n[nH]c(=O)c3cc(F)cc(c23)N[C@@H]1c1ccc(F)cc1 + CC1OCC2(CCN(c3cnc(Sc4ccnc(N)c4Cl)c(N)n3)CC2)C1N 39.1

Notebook: pull reported viability, T/C for 292921-168-R-J2-PDC KRAS tumor spheroid viability, entry CC1OCC2(CCN(c3cnc(Sc4ccnc(N)c4Cl)c(N)n3)CC2)C1N (stereo not given) + COc1cc2nc(C)nc(NC(C)c3cc(N)cc(C(F)(F)F)c3)c2cc1OC1CCOC1 51

Checklist item: viability, T/C tested on 292921-168-R-J2-PDC KRAS tumor spheroid viability, entry O=C(c1cc(Cc2n[nH]c(=O)c3ccccc23)ccc1F)N1CCN(C(=O)C2CC2)CC1 + C=CC(=O)N1CCN(c2nc(OCC3CCCN3C)nc3c2CCN(c2cccc4cccc(C)c24)C3)CC1CC#N , value? 43.5

Sourced from PubChem BioAssay AID1963870
